Where do these numbers come from? They come from PubChem BioAssay AID652062.

For each record, write down the corresponding activity change, negative = inhibition.
# protocol-notes: HIV-1 AD8 envelope cell-cell fusion blockers – cherry-pick, dose response (AID 652062)
# condition-description: HeLa-AD8 Env / CEM-CCR5 cell fusion, luciferase; at 35 µM (top of the series) unless noted
Out of some 1,400 compounds screened, about 1,100 (79%) were called active. So high a share suggests a set chosen from earlier hits. Only a sample is shown. Entries with a potency or affinity are not part of this list.
Numbers only, in %.

Below: 8 molecules and their reported activity change, negative = inhibition.
molecule: Cc1ccc(NC(=O)c2ccc(OCC3CCCO3)cc2)cc1Cl (configuration not stated)
readout-units: %
activity change, negative = inhibition: -7.89
--
molecule: CC(=O)c1ccc([C@H]2C[C@@]34CN(C(=O)OC(C)(C)C)S(=O)(=O)[C@H]3C[C@H]2O4)cc1
readout-units: %
activity change, negative = inhibition: -3.29
--
molecule: C[C@@H]1CN([C@@H](C)CO)C(=O)c2cc(NC(=O)c3ccncc3)ccc2O[C@H]1CN(C)Cc1ccncc1
readout-units: %
activity change, negative = inhibition: 56.3
--
molecule: CO[C@H]1CN(C)C(=O)c2ccc(NC(=O)C3CC3)cc2OC[C@@H](C)N(C(C)=O)C[C@@H]1C
readout-units: %
activity change, negative = inhibition: 20
--
molecule: NC(=S)c1ccc(OCCCc2ccccc2)cc1
readout-units: %
activity change, negative = inhibition: 30.2
--
molecule: CCOc1ccccc1C(=O)NCC(=O)NNC(=O)CN(C)S(=O)(=O)c1ccc(Cl)cc1
readout-units: %
activity change, negative = inhibition: -52.6
--
molecule: COc1ccc(NC(=O)C(=O)NCC2CCCN2S(=O)(=O)c2cccs2)cc1 (configuration not stated)
readout-units: %
activity change, negative = inhibition: 23.4
--
molecule: COc1ccc(CCCC(=O)NCCc2ccccc2)c(C)c1
readout-units: %
activity change, negative = inhibition: 7.11

Quick one: give me activity change, negative = inhibition for each item below, same order please.
1. O=C(C[C@@H]1CC[C@@H](NC(=O)c2ccncc2)[C@H](CO)O1)NCCc1ccncc1
2. COc1ccccc1N/C(N)=N/c1nc(CSc2ccc(C)cc2)cc(=O)[nH]1
3. COc1ccc(S(=O)(=O)N2CCCCC2)cc1NC(=O)CCCOc1ccc(C)cc1
4. COc1ccc(C)cc1NC(=O)CCNS(=O)(=O)c1ccc2c(c1)CC(C)N2C(C)=O (configuration not stated)
5. Cc1ccc(C(=O)NCc2ccccn2)cc1S(=O)(=O)N1CCCCC1
6. CCCC(=O)Nc1ccc2c(c1)OC[C@H](C)N(Cc1ccncc1)C[C@H](C)[C@H](OC)CN(C)C2=O
7. COc1ccc(OC)c(-c2cc(C(=O)Nc3c(C)nn(Cc4ccc(Cl)cc4)c3C)no2)c1
8. Nc1ncn([C@H]2C[C@H](O)[C@@H](CO)O2)c(=O)n1

Result:
[38.7, -51.5, 3.18, -17.8, 24.4, -9.34, -43.8, 8.34]
